// reported EC50, CreLuc assay, 100% hP for each item listed
- System: T1, human GIP receptor (human, UniProt P48546 22-466)
- T1 sequence (looked up): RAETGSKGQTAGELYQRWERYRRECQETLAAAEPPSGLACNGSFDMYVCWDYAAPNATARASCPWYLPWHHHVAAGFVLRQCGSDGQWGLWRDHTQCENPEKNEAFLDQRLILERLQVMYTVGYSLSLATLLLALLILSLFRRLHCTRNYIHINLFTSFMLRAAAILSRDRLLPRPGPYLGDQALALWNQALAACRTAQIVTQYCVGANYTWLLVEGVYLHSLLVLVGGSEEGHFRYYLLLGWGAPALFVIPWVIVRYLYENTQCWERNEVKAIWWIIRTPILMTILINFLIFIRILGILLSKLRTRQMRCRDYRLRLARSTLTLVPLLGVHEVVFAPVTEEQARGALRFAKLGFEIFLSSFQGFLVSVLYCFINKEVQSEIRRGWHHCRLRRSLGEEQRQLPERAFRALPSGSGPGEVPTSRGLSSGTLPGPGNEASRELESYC
- Assay details: cell-based or functional assay
Non-standard residues stand in square brackets, D forms with d. No end group written: not given here. Aib = CC(C)(N)C(=O)O
Readout name: EC50, CreLuc assay, 100% hP (nM)

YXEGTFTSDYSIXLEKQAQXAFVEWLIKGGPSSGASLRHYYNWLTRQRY (Aib at 2, 13, 20; DLeu 37; DHis 39; DArg 46; DTyr 49; K28 side chain: C20DA-gGlu-gGlu-gGlu-gGlu-gGlu-gGlu-eLys; C-terminal NH2) [Compound 5] = 1.07
Y[Aib]EGTFTSDYSI[Aib]LEKQAQ[Aib]EFVQWLIKGGPSSGASLRHYYNWLTRQRY-NH2 (not fully specified (residue 28); also: TFA salt) [Compound 28] = 3.08
Y[Aib]EGTFTSDYSI[Aib]LEKQAQ[Aib]AFVEWLIKGGPSSGAS[Aib]RHYYNR[Aib]TRQRY-NH2 (not fully specified (residue 28); also: TFA salt) [Compound 13] = 0.77
